Entries annotated with measured self-cleavage kobs at 10000 uM GlcN6P
B1: glmS ribozyme (parent)
chain: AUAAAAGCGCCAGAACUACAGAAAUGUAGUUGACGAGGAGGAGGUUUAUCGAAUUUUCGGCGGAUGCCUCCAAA

variants of: B1; test: self-cleavage kobs at 10000 uM GlcN6P; higher = faster cleavage; RNA array; conditions: with glucosamine-6-phosphate
Variants at the floor of the assay were thinned out.
PROPERTY_NAME: self-cleavage kobs at 10000 uM GlcN6P (s⁻¹)

SEQUENCE_TEXT	PROPERTY_NAME	RELATION_OPERATOR	READOUT_VALUE
AUAAAAGCGCCAUAACUACAGAAAUGUAGUUGACGAGGAGGAGGUUUAUCGAAUUUUCUGCGGAUGCCUCCAAA	self-cleavage kobs at 10000 uM GlcN6P	<	1e-05
AUAAAAGCGCCAGAACUACAGAAAUGUAGUUGCCGAGGAGGAGGUUGCUCGAAUUUUCGGCGGAUGCCUCCAAA	self-cleavage kobs at 10000 uM GlcN6P	<	1e-05
AAAAAAGCGCCAGAACUACAGAAAUGUAUUUGACGAGGAGGAGGUUUAUCGAAUUUUCGGCGGAUGCCUCCAAA	self-cleavage kobs at 10000 uM GlcN6P	=	0.00749
AUAAAAGCGCCAGAACUACAGAAAUGUAGUUGACGAGGAGGAGGUUAAUCGAAUUUUGGGCGGAUGCCUCCAAA	self-cleavage kobs at 10000 uM GlcN6P	=	0.000117
AUAAAAGCGCCAGAACUACAGAAAUGUAGCCGACGAGGAGGAGGUUUAUCGAAUUUUCGGCGGAUGCCUCCAAA	self-cleavage kobs at 10000 uM GlcN6P	=	0.00328
AUAAAAGCGCCAGUACUACAGAAAUGUAGUUGACGAGGAGGAGGUGUAUCGAGUUUUCGGCGGAUGCCUCCAAA	self-cleavage kobs at 10000 uM GlcN6P	=	0.000633
AUAAAAGCGCCAGAACUACAGAAAUGUAGUUGACGAGGAGGAGGUUUAUCUAAUUUUCGGCGCAUGGCUCCAAA	self-cleavage kobs at 10000 uM GlcN6P	<	1e-05
AUAAAAGCGCCAGAACUACAGAAAUGUAGUUGACGAGGCGGAGGUUUAACGAAUUUUCGGUGGAUGCCUGCAAA	self-cleavage kobs at 10000 uM GlcN6P	<	1e-05
AUAAAAGCGCCAGAACUACAGAAAUGUACUUGACGAGUAGGAGGUUUCUCGAAUUUUCGGCGGAUGCCUCCAAA	self-cleavage kobs at 10000 uM GlcN6P	<	1e-05
AUAAAAGCGCCAGAACUACAGAAAUGUAGUUGACGAGGUGGAGGUUUAUCGAAUUUUCGGCGGAUGACUCCAAA	self-cleavage kobs at 10000 uM GlcN6P	=	0.00878
AUAAAAGCGCCAGAACUACAGAAAUGUAGUUGACGAGGAGGAGGUUUGUCGAAUUUUCGGCGUAUGCCUCCAAA	self-cleavage kobs at 10000 uM GlcN6P	<	1e-05
